These measurements were taken from patent US20240043504A1.

Each item that follows carries a reported t½.
Target: SARS-COV-2 RBD extracellular domain expressed with a C-terminal mouse IgG2a (SARS-COV-2 RBD-mFc) (SARS-CoV-2)
Assay: SPR, captured mAb, RBD-mFc in solution, 37 C

Answered cases to consult:
• mAb10984 (antibody, V domains shown) VH: EVQLVESGGGLVQPGGSLRLSCAASGLTVNRNYMSWVRQAPGKGLEWVSLIYSGGSTYYADSVKGRFTISRDNSKNTLYLQMNSLRLEDTAVYYCARGELGIPYGMDVWGQGTTVTVSS VL: QSVLTQPPSVSAAPGQKVTISCSGSSSNIGNNYVSWYQQLPGTAPKLLIYDNNKRPSGIPDRFSGSKSGTSATLGITGLQTGDEADYYCGTWDSSLSAGVFGGGTKLTVLG = 138 min
• mAb11008 (antibody, V domains shown) VH: EVQLVESGGGLVQPGGSLRLSCAASGFTVSSNYMTWVRQAPGKGLEWVSVIYSGGSTFYADSVKGRFTISRHNSENTLYLQMNSLRAEDTAVYYCARDLAAAGTDYWGQGALVTVSS VL: DIQLTQSPSFLSASVGDRVTITCWASQGISSYLAWYQQKPGKAPKLLIYAASTLQSGVPSRFSGSGSGTEFTLTISSLQPDDFATYYCQHLNSYLYTFGQGTKLEIKR = 28.5 min

Consider now this further binder.
// t½ lookup, binder = mAb10998 (antibody, V domains shown) VH: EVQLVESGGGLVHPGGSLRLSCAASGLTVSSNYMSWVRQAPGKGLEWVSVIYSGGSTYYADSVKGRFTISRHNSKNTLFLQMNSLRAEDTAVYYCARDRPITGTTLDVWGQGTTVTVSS VL: DIQMTQSPSSLFASVGDRVTITCRASQSISSYLNWYQQKPGKAPKLLIYAASSLQSGVPSRFSGSGSGTDFTLTISSLQPEDFAFYYCQQTYSTPPITFGQGTRLEIKR , result: 0.6 min
